Target: human HSL (Homo sapiens)
Construct: overlapping PCR to generate a full length human HSL ORF with a 3′-His6 tag
Sequence (Q05469 1-1076): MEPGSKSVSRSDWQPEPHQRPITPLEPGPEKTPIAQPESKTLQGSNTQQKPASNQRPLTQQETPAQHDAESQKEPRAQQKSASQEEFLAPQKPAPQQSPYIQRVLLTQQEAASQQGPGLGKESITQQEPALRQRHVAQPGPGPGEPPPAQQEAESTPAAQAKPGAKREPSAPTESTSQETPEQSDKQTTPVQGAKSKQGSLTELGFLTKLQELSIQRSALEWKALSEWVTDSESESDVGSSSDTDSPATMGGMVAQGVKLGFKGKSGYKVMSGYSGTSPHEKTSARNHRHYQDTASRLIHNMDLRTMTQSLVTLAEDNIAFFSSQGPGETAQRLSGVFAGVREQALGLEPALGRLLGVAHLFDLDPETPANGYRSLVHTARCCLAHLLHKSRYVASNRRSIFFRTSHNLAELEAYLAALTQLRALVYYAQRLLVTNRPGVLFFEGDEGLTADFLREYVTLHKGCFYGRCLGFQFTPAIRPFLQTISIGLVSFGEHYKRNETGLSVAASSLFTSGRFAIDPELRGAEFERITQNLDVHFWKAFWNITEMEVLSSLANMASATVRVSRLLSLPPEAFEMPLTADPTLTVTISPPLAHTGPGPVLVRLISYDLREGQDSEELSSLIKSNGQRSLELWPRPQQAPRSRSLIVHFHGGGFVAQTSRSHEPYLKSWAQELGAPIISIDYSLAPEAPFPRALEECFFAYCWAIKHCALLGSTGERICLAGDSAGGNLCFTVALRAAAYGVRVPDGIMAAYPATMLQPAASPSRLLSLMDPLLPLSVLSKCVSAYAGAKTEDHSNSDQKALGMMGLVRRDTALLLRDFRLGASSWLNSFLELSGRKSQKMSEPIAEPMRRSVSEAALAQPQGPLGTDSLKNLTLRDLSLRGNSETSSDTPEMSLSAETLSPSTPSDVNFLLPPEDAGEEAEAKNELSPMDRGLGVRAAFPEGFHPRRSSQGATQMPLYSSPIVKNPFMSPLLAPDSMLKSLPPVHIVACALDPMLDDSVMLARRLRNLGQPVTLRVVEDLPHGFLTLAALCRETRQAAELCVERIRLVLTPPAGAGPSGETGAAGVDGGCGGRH
Assay: Human Hormone-Sensitive Lipase (HSL) enzyme inhibition assay (colorimetric, DMPT substrate)
Details: human full length HSL-His6; substrate 2,3-dimercapto-1-propanol tributyrate; 37° C., 20 minutes; absorbance at 405 nm; read-out: HSL hum IC50
pIC50: −log10 of the molar value.
RECORDED METRIC: pIC50

Use the examples below as a reference point.
SMILES CODE	RECORDED METRIC	OBSERVED RESULT
O=C1N(c2ccc(OC(F)(F)F)cc2)CCC12CCN(c1cccc(OC(F)(F)F)c1)CC2	pIC50	6.20
Cn1cccc(N2CCC3(CC2)CCN(c2ccc(OC(F)(F)F)cc2)C3=O)c1=O	pIC50	7.70
COc1ccccc1N1CCC2(CC1)CCN(c1ccc(OC(F)(F)F)cc1)C2=O	pIC50	6.96

(A) COc1ncccc1N1CCC2(CC1)CCN(c1ccc(OC(F)(F)F)cc1)C2=O
(B) O=C1N(c2ccc(OC(F)(F)F)cc2)CCC12CCN(c1ccc(C(F)(F)F)cc1F)CC2
(C) C[C@H](Oc1ccc(N2CCC3(CCN(c4cccn(C)c4=O)CC3)C2=O)cc1)C(F)(F)F
(D) O=C1N(c2ccc(OC(F)(F)F)cc2)CCC12CCN(c1ccccc1F)CC2
Ask: Sort by pIC50, descending. A ranking is expressed here by listing the labels in the requested order.
Reply: C, A, D, B
